# tested_on: human EDG-1 (S1P1) (Homo sapiens, UniProt P21453)
# Construct: c-myc (N)
# Sequence (P21453 whole entry): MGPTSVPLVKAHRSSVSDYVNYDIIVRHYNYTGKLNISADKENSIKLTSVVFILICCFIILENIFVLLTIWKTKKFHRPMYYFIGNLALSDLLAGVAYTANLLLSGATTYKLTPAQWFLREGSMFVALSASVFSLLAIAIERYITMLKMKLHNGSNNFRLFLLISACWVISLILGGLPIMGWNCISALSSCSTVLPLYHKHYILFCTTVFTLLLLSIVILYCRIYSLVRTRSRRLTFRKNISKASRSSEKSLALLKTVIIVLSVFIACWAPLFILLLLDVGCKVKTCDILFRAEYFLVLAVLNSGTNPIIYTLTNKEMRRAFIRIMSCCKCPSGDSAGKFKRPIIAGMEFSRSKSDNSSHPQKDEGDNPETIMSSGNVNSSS
# assay_explanation: S1P1 (EDG-1) GTP [γ-35S] binding assay, membranes from CHO cells
pEC50: −log10 of the molar value.
# pEC50 values compiled below

| compound | tested_on | reported_result |
| --- | --- | --- |
| O=C(O)CCC(=O)Nc1ccc(-c2nc(-c3ccc(C4CCCCC4)c(C(F)(F)F)c3)no2)cc1 [Example 21] | human EDG-1 (S1P1) (Homo sapiens, UniProt P21453) | > 6.00 |
| NS(=O)(=O)c1ccc(-c2nc(-c3ccc(-c4ccccc4)c(C(F)(F)F)c3)no2)cc1 [Example 13] | human EDG-1 (S1P1) (Homo sapiens, UniProt P21453) | > 6.00 |

Now let's try a different one.
Task: # get_value(readout= pEC50, system= human EDG-1 (S1P1) (Homo sapiens, UniProt P21453)) for O=C(O)CCNS(=O)(=O)c1ccc(-c2nc(-c3ccc(-c4ccccc4)c(C(F)(F)F)c3)no2)cc1 [Example 4]
Result: > 6.00

FYI, the data here is from patent US7799812B2.
